Data origin, for the record: patent US10947242B2

- tested.target: Human recombinant PDE10A (hPDE10A) (Homo sapiens, UniProt Q9Y233)
- Construct: His tag (inferred from metal chelate purification); made in house; host or cells: Sf9 insect cells (baculovirus)
- Sequence (Q9Y233 267-1055): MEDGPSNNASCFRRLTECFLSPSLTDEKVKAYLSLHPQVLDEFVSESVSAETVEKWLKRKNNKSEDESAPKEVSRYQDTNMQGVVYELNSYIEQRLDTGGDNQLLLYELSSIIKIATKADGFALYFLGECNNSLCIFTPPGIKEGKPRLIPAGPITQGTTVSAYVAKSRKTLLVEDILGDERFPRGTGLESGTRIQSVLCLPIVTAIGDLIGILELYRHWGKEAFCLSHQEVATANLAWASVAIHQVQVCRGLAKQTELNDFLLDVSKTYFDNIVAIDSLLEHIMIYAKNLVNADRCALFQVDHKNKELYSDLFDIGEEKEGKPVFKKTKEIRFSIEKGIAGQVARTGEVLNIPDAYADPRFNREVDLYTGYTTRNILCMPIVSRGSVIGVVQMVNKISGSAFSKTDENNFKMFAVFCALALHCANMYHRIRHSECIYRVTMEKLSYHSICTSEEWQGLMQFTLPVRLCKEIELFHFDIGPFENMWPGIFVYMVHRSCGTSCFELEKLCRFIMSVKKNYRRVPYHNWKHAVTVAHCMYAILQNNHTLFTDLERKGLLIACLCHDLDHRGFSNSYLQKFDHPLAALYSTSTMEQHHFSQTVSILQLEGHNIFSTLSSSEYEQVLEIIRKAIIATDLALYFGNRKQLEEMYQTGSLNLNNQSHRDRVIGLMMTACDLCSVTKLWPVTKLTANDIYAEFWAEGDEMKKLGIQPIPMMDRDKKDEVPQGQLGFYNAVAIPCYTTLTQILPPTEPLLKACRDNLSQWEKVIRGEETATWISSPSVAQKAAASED
- assay.notes: In vitro assay PDE10A, human clone (SPA, 3H-cAMP hydrolysis)
- Format: biochemical
- settings: human clone by default (no (r) mark); read-out: hPDE10A2 or rPDE10A2 pIC50 (converted)
Under this convention, Fulfilled denotes IC50 strictly below 3000 nM and Not fulfilled denotes IC50 at or above 3000 nM.

smiles_input=COc1cc(C(=O)N2[C@H]3CC[C@H](c4cc(C(F)F)nc5ncnn45)[C@@H]2CC3)cc(C)n1 label_class=Fulfilled
smiles_input=C[C@@H]1CCN(C(=O)c2cccnc2F)C[C@H]1c1cc(C(F)F)nc2ncnn12 label_class="Not fulfilled"
smiles_input=COc1c(C(=O)N2CC[C@@H](C)[C@H](c3cc(C(F)F)nc4ncnn34)C2)cccc1C(F)(F)F label_class=Fulfilled
smiles_input=C[C@@H]1CCN(C(=O)c2ncccc2N)C[C@H]1c1cc(C(F)F)nc2ncnn12 label_class="Not fulfilled"
smiles_input=C[C@@H]1CCN(C(=O)c2cc(C3CC3)ncc2F)C[C@H]1c1cc(C(F)F)nc2ncnn12 label_class=Fulfilled

Would you kindly verify if IC50 of `O=C(c1ccc(Cl)s1)N1[C@H]2CC[C@H](c3cc(C(F)F)nc4ncnn34)[C@@H]1CC2` is strictly less than 3000 nM?
Fulfilled

Would you kindly verify if IC50 of `C[C@@H]1CCN(C(=O)c2ccncc2C(F)(F)F)C[C@H]1c1cc(C(F)F)nc2ncnn12` is strictly less than 3000 nM?
Not fulfilled
